B1: ALDH8A1 (parent)
chain: FTGSQPTAERITQLSAPHCKKLSL

- Variants of: B1
- procedure_text: protein stability index of a GFP-peptide fusion (GPS, HEK-293T) (PSI 1-6); higher = more stable;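 also: lentivirally expressed fusions sorted by FACS into six bins by GFP to DsRed ratio, PSI derived from sequencing read proportions per bin multiplied by bin number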
- reported_conditions: c terminus: a fixed tail appended
Below, each of the variants is paired with its reported protein stability index value.
metric: protein stability index

mut | result
F1G | 4.34
G3D | 3.15
K21D | 2.89
T7L | 2.27
S23D | 2.69
T2D | 3.95
F1P | 4.14
F1L | 3.65
S23W | 1.85
S4D | 3.06
T12G | 2.27
F1N | 4.34
F1W | 3.35
P6K | 2.7
L14W | 2.2
L24R | 2.52
S15P | 2.32
S15L | 2.87
T12E | 3.25
L22E | 3.46
Q5C | 2.45
T12I | 1.51
K20S | 2.26
L24K | 2.5
P6Q | 2.38
I11A | 2.48
P6H | 2.25

Values compiled from the supplement of paper PMC10567573.
